assay protocol: Human HepG2 cell viability assay in 384 well format
Format: toxicity, cell-based
Design: dose 125 nL, time 70.5 hour; concentration not given beside the values
test conditions: HepG2 cells, read-out: Inhibition
Known cytotoxicity at 70.5 h of a selection of molecules
attribute measured: cytotoxicity at 70.5 h (%)

INSERT INTO measurements (molecule, observed_measurement) VALUES
  ('O=C(NC1CC1)C1CNCCN1C(=O)COc1ccc2c(c1)OCO2 (stereo unspecified)', -5.08),
  ('CN(C)C(=O)C1CCN(C2CCN(CC3CCC3)CC2)CC1', -1.7),
  ('Cc1cccc(C(=O)N2C[C@@H]3[C@H](CC(=O)NC(C)C)[C@@H]3C2)n1', -9.84),
  ('Cc1cc(C)n(CCCn2cncc2-c2ccc3c(c2)CC(C)N3C)n1 (stereo unspecified)', 2),
  ('CC(CN1CCC2(CC1)c1nc[nH]c1CCN2S(C)(=O)=O)C(F)(F)F (stereo unspecified)', -1.86),
  ('Cc1nc(CNCC2COCc3c(-c4ccoc4)nnn3C2)cs1 (stereo unspecified)', -6.23),
  ('CC(NCc1ccc(-c2ccc(F)cc2)o1)c1nnc2n1CCC2 (stereo unspecified)', -9.83),
  ('CN(C)CCOC[C@H]1CC[C@H]2[C@H](CCN2C(=O)c2ccoc2)O1', -12.4),
  ('CC(C)NC(=O)CNC(=O)c1csc(Cc2ccccc2F)n1', -4.54),
  ('CC(C)(C)n1cc(C2=CCN(CCc3ccccn3)CC2)cn1', -5.94),
  ('c1cc(-c2cscn2)cc(N2CCC(NCCc3cccs3)CC2)c1', 0.55),
  ('O=C1CC[C@@H]2[C@@H](CCN2Cc2ccncc2)N1c1ccccc1', 4.02),
  ('Cc1cccc(CN2CCO[C@H]3[C@@H](OCc4ccncc4)CC[C@@H]32)n1', -7.09),
  ('Cn1ccnc1CN1CCCN(C(=O)C2(C#N)CCCCC2)CC1', 1.4),
  ('CCCn1cc(-c2ccnc(NC3CCCc4ccccc43)n2)c(C)n1 (stereo unspecified)', 18.9),
  ('COc1ccc(C(C)NC(=O)Cn2ccc(=O)n(C)c2=O)cc1F (stereo unspecified)', -2.29),
  ('O=c1oc(-c2ccc(F)cc2)nn1CN1CCCCC1', -18.4),
  ('Cc1ncsc1CCN(C)Cc1cc2n(n1)CCN(Cc1ncc[nH]1)C2', 47.1),
  ('CN(C)Cc1nc(C(C)(C)NC(=O)c2ccc3ccccc3c2)no1', -6.87),
  ('CCc1noc(C(C)N(C)CC(=O)Nc2c(C)cccc2C)n1 (stereo unspecified)', -4.56),
  ('Cc1nsc(C(=O)NCCc2ccc(Cl)cc2)n1', 2.81),
  ('Cc1nc(CCNC(C)c2ccc3c(c2)OCCCO3)cs1 (stereo unspecified)', 0.884),
  ('Cc1ccc(N2CCC3(CCN(C(=O)N(C)C)CC3)CC2)nn1', 11.4),
  ('CCc1ncc2c(n1)CN(Cc1nc(-c3ccco3)oc1C)CC2', -7.47),
  ('Fc1ccc(OCCNCCn2cccn2)cc1', -9.89),
  ('Cc1cccc(Nc2ccc(C3CCN(Cc4ncc[nH]4)CC3)nc2)n1', 0.422),
  ('CC(=O)Nc1nc(C(=O)N2CCCC2c2ccccc2C)cs1 (stereo unspecified)', -19.1),
  ('CC1COc2ccccc2N1C(=O)c1ccc(=O)n(C)c1 (stereo unspecified)', 22.1),
  ('CC(=O)Nc1ccc(CCC2(NC(=O)C3CCCO3)CCCCC2)cn1 (stereo unspecified)', -0.834),
  ('O=C(c1ccc(F)cc1)N1CC[C@H]2[C@H]1CCN2CC1CCOCC1', -6.57),
  ('Cc1ccc(N2CC(c3nccc(C)n3)C2)nn1', 9.5),
  ('CO[C@H]1COCCN(C(=O)c2cc(C)oc2C(F)(F)F)C1', -3.96),
  ('C[S+]([O-])c1nncn1CC(=O)c1cccc(Br)c1 (stereo unspecified)', -3.69),
  ('COc1cc(NC2CCS(=O)(=O)CC2)ncn1', -16.4),
  ('FC(F)(F)CCc1ccnc(N2CCN(Cc3ccccn3)CC2)n1', 6.16),
  ('O=C(c1cccc(S(=O)(=O)NCCCc2ccco2)c1)N1CCOCC1', 3.78),
  ('COc1cc2cc(C(=O)N[C@@H](C)C(=O)O)n(C)c2c(OC)c1OC', -4.88),
  ('OCCCNC1CCc2cc3c(cc21)OCCO3 (stereo unspecified)', -4.1),
  ('Cc1nc2sccn2c1CNC1(c2ccccc2F)CCCC1', -8.91),
  ('CCOCC1CN(C(=O)c2ccco2)Cc2cnn(C)c21 (stereo unspecified)', -2.81),
  ('CC(C)CNC(=O)CNC(=O)c1nc(Cc2c(Cl)cccc2Cl)no1', -9.72),
  ('CC1=N[C@@]2(CC[C@@H]3CN(Cc4cccc(Cl)c4)C[C@@H]32)C(=O)N1CC1CC1', -14.9),
  ('CN(C)C(=O)CO[C@H]1CN(Cc2ccc(F)cc2)[C@@H]2CCCO[C@H]12', -9.38),
  ('N[C@@H]1CC[C@H](C(=O)NCCc2nc(-c3ccccc3)cs2)C1', -1.72),
  ('Cc1cnc(Cn2cc(-c3cccc(C(C)N(C)C)c3)nn2)cn1 (stereo unspecified)', -4.71),
  ('CN(CC(F)(F)F)C(=O)CN1CCC(c2cc3ccccc3[nH]2)CC1', -25);
